Origin of values: patent US20250011397A1

# Kd annotations
# Experimental System: T1, SARS-CoV-2 receptor binding domain (RBD), wild type, His-tagged (BEI NR52309) (SARS-CoV-2, UniProt P0DTC2 319-541)
# T1 construct: also called WT RBD
# Assay Explanation: RBD KD column; method and antibody format not stated
Report as a plain number; the unit nM is understood.

>  <Binder>
mAb 158 (antibody, V domains shown, also called IgG 158) VH: QVQLVQSGAEVKKPGASVKVSCKASGYTFTGYYMHWVRQAPGQGLEWMGWINPLNGGTNFAPKFQGRVTMTRDTSTSTVYMELSSLRSEDTAVYYCARDPGGSYSNDAFDIWGQGTLVTVSS VL: DIQMTQSPSSLSASVGDRVTITCRASQSISRYLNWYQQKPGKAPKLLIYDASNLESGVPSRFSGSGSGTDFTLTISSLQPEDFATYYCQQANSFPLTFGGGTKVDIKR

>  <Units Label>
nM

>  <Kd>
172

$$$$
>  <Binder>
mAb 160 (antibody, V domains shown, also called IgG 160) VH: QVQLVQSGAEVKKPGASVKVSCKASGYTFTGHDMHWVRQAPGQGLEWMGIINPSGGSTSYAQKFQGRVTMTRDTSTSTVYMELSSLRSEDTAVYYCARANSLRYYYGMDVWGQGTMVTVSS VL: DIQMTQSPSSLSASVGDRVTITCRASQSVSSWLAWYQQKPGKAPKLLIYAASSLQSGVPSRFSGSGSGTDFTLTISSLQPEDFATYYCQQGYTTPYTFGQGTKLEIKR

>  <Units Label>
nM

>  <Kd>
7.7

$$$$

# input for lookup
Query block: # return recorded Kd for input mAb 56 (antibody, V domains shown, also called IgG 56) VH: QVQLVQSGAEVKKPGASVKVSCKASGYTFTSYGISWVRQAPGQGLEWMGWISAYNGNTNYAQKLQGRVTMTRDTSTSTVYMELSSLRSEDTAVYYCARDIGPIDYWGQGTLVTVSS VL: DIQMTQSPSSLSASVGDRVTITCRASQGISSYLAWYQQKPGKAPKLLIYDASNLQSGVPSRFSGSGSGTDFTLTISSLQPEDFATYYCQQANSFPSTFGQGTKVEIKR
Result block: 23
